target: RORγ (Homo sapiens, UniProt P51449); construct: expressed in transfected cells; host or cells: HEK 293 cells, transiently transfected; experiment: Reporter Gene Assay (RGA): inhibition of RORγ transactivation of a luciferase reporter in transiently transfected HEK 293 cells; format: cell-based; settings: HEK 293 cells cotransfected with pGL4.3 luc2P/GAL4UAS and pBIND Gal4DBD hRORC LBD; 20-24 h incubation; luciferase luminescence

Compound	IC50 (µM)
CCS(=O)(=O)c1ccc(CNC(=O)N2CC(c3ccccc3)C(c3cc(C4CC4)nn3C(C)C)C2)cc1 (stereo not shown) [Example 16A]	0.625
CCS(=O)(=O)c1ccc(CNC(=O)N2CC(c3ccccc3)C(c3cccc(OC(F)(F)F)c3)C2)cc1 (stereo not shown) [Example 27]	2.4
CCS(=O)(=O)c1cnc(CNC(=O)N2CC(c3cccc(C4CC4)n3)C(c3cc(C4CC4)nn3C(C)C)C2)nc1 (stereo not shown) [Example 54]	5.2
CCS(=O)(=O)c1ccc(CNC(=O)N2CC(c3cccc(C4CC4)c3)C(c3cc(C4CC4)nn3C(C)C)C2)nc1 (stereo not shown) [Example 52]	1.48
CCS(=O)(=O)c1ccc(CNC(=O)N2CC(c3cc(C)cc(C)n3)C(c3cc(C4CC4)nn3C(C)C)C2)nc1 (stereo not shown) [Example 46]	3.2
CCS(=O)(=O)c1ccc(CNC(=O)N2CC(c3cccc(C4CC4)n3)C(c3cn(C(C)C)nc3C(C)(C)C)C2)cc1 (stereo not shown) [Example 57]	1.05
CCS(=O)(=O)c1ccc(CNC(=O)N2CC(c3ccccc3)C(c3cn(C4CC4)nc3C(C)(C)C)C2)cc1 (stereo not shown) [Example 33]	0.51

* * *

Catalogue of molecules with associated pIC50
target: UniProtKB P51449; assay: Reporter Gene Assay (RGA): inhibition of RORγ transactivation of a luciferase reporter in transiently transfected HEK 293 cells; conditions: HEK 293 cells cotransfected with pGL4.3 luc2P/GAL4UAS and pBIND Gal4DBD hRORC LBD; 20-24 h incubation; luciferase luminescence
pIC50: −log10 of the molar value.
Measure: pIC50

Molecule	Measure	Data Value
CCS(=O)(=O)c1ccc(CNC(=O)N2CC(c3ccccc3)C(c3ccccc3)C2)cc1 (stereo not shown) [Example 1]	pIC50	5.62
CCS(=O)(=O)c1ccc(CNC(=O)N2CC(c3ccccc3)C(c3cc(C(C)(C)C)nn3C(C)C)C2)nc1 (stereo not shown) [Example 41]	pIC50	5.84
CCS(=O)(=O)c1ccc(CNC(=O)N2CC(c3cccc(C4CC4)n3)C(c3cc(C4CC4)nn3C(C)C)C2)nc1 (stereo not shown) [Example 53]	pIC50	5.81
CCS(=O)(=O)c1ccc(CNC(=O)N2CC(c3ccccc3)C(c3nc(C(C)C)nn3C3CC3)C2)cc1 (stereo not shown) [Example 21]	pIC50	5.13
CCS(=O)(=O)c1ccc(CNC(=O)N2CC(c3cccc(Cl)c3)C(c3cc(C4CC4)nn3C(C)C)C2)cc1 (stereo not shown) [Example 48]	pIC50	6.11
CCS(=O)(=O)c1ccc(CNC(=O)N2C[C@@H](c3ccccc3)[C@H](c3cc(C4CC4)nn3C(C)C)C2)cc1 [Example 16C]	pIC50	5.90
CCS(=O)(=O)c1ccc(CNC(=O)N2CC(c3ccccc3)C(c3cc(C(C)(C)C)nn3C(C)C)C2)cc1 (stereo not shown) [Example 38]	pIC50	6.11

* * *

Target: RORγ (Homo sapiens)
Sequence (P51449 269-508 limits assumed): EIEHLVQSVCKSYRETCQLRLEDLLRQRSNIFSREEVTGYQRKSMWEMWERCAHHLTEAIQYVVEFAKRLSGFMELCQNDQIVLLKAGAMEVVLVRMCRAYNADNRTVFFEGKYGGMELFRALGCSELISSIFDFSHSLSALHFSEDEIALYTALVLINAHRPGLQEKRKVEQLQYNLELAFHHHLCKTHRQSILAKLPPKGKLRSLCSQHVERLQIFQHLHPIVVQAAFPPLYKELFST
Test: Reporter Gene Assay (RGA): inhibition of RORγ transactivation of a luciferase reporter in transiently transfected HEK 293 cells
Conditions: HEK 293 cells cotransfected with pGL4.3 luc2P/GAL4UAS and pBIND Gal4DBD hRORC LBD; 20-24 h incubation; luciferase luminescence
Procedure: Reporter Gene Assay (RGA) A nuclear receptor transactivation assay is performed to quantitate the ability of test compounds to inhibit RORγ transactivation of a luciferase reporter. A similar assay is described in: Khan et al., Bioorganic & Medicinal Chemistry Letters 23 (2013), 532-536. […] The plates are read on an Envision plate reader to measure luminescence signal. […]
pIC50: −log10 of the molar value.
Where pIC50 equals or exceeds 6, the correct label is criterion met; where it does not, the label is criterion not met.

Compound	Class Label
CCS(=O)(=O)c1ccc(CNC(=O)N2CC(c3ccccc3)C(c3nn(C(C)C)nc3C3CC3)C2)nc1 (stereo not drawn)	criterion not met
CCS(=O)(=O)c1cnc(CNC(=O)N2CC(c3ccccc3)C(c3cc(C4CC4)nn3C(C)C)C2)nc1 (stereo not drawn)	criterion not met
CCS(=O)(=O)c1ccc(CNC(=O)N2CC(c3ccccc3)C(c3cccc(OC(F)(F)F)c3)C2)nc1 (stereo not drawn)	criterion not met
CCS(=O)(=O)c1ccc(CNC(=O)N2CC(c3ccccc3)C(c3cn(C(C)C)nc3C(C)(C)C)C2)cc1 (stereo not drawn)	criterion met
CCS(=O)(=O)c1ccc(CNC(=O)N2CC(c3ccccc3)C(c3nc(C4CC4)nn3C(C)C)C2)cc1 (stereo not drawn)	criterion not met
CCS(=O)(=O)c1ccc(CNC(=O)N2CC(c3ccccc3)C(c3cc(C4CC4)nn3C)C2)cc1 (stereo not drawn)	criterion not met
CCS(=O)(=O)c1ccc(CNC(=O)N2CC(C(C)C)C3(C2)Oc2c(C(C)C)ccc(C)c2C3=O)cc1 (stereo not drawn)	criterion met
CCS(=O)(=O)c1ccc(CNC(=O)N2CC(c3ccccc3)C(c3cn(C)nc3C(C)(C)C)C2)cc1 (stereo not drawn)	criterion not met
CCn1nc(C2CC2)cc1C1CN(C(=O)NCc2ccc(S(=O)(=O)CC)cc2)CC1c1ccccc1 (stereo not drawn)	criterion not met
CCS(=O)(=O)c1ccc(CNC(=O)N2CC(c3ccccc3)C(c3cc(C)nn3C3CCCC3)C2)cc1 (stereo not drawn)	criterion met
CCS(=O)(=O)c1ccc(CNC(=O)N2CC(c3ccccc3)C(c3ccccc3)C2)cn1 (stereo not drawn)	criterion not met
CCS(=O)(=O)c1ccc(CNC(=O)N2CC(c3ccccc3)C(c3nn(C(C)C)nc3C3CC3)C2)cc1 (stereo not drawn)	criterion not met
CCS(=O)(=O)c1ccc(CNC(=O)N2CC(c3cccc(Cl)c3)C(c3nc(C(C)C)no3)C2)cc1 (stereo not drawn)	criterion not met
CCS(=O)(=O)c1ccc(CNC(=O)N2CC(c3ccccc3)C(c3cc(C)nn3C)C2)cc1 (stereo not drawn)	criterion not met
CCS(=O)(=O)c1ccc(CNC(=O)N2CC(c3ccccc3)C(c3nc(C(C)C)nn3C(C)(C)C)C2)cc1 (stereo not drawn)	criterion not met
CCS(=O)(=O)c1ccc(CNC(=O)N2CC(c3cccc(Cl)c3)C(c3nc(C4CC4)nn3C(C)C)C2)nc1 (stereo not drawn)	criterion not met
CCS(=O)(=O)c1ccc(CNC(=O)N2CC(c3ccccc3)C3(C2)Oc2c(C(C)C)ccc(C)c2C3=O)nc1 (stereo not drawn)	criterion met
CCS(=O)(=O)c1ccc(CNC(=O)N2CC(c3ccccc3)C(c3nc(C4CC4)nn3C(C)(C)C)C2)cc1 (stereo not drawn)	criterion not met
CCS(=O)(=O)c1ccc(CNC(=O)N2CC(c3ccccc3)C(c3ccccc3)C2)nc1 (stereo not drawn)	criterion not met
CCS(=O)(=O)c1ccc(CNC(=O)N2CC(c3ccccc3)C(c3ncccc3C3CC3)C2)cc1 (stereo not drawn)	criterion not met
CCS(=O)(=O)c1ccc(CNC(=O)N2CC(C(C)C)C3(C2)Oc2c(C(C)C)ccc(C)c2C3=O)nc1 (stereo not drawn)	criterion met
CCS(=O)(=O)c1ccc(CNC(=O)N2CC(c3ccccc3)C(c3cc(C4CC4)nn3CC3CC3)C2)nc1 (stereo not drawn)	criterion not met

* * *

Target: RORγ (Homo sapiens, UniProt P51449)
Assay: Reporter Gene Assay (RGA): inhibition of RORγ transactivation of a luciferase reporter in transiently transfected HEK 293 cells
Conditions: HEK 293 cells cotransfected with pGL4.3 luc2P/GAL4UAS and pBIND Gal4DBD hRORC LBD; 20-24 h incubation; luciferase luminescence
Experimental: Reporter Gene Assay (RGA) A nuclear receptor transactivation assay is performed to quantitate the ability of test compounds to inhibit RORγ transactivation of a luciferase reporter. A similar assay is described in: Khan et al., Bioorganic & Medicinal Chemistry Letters 23 (2013), 532-536. […] The plates are read on an Envision plate reader to measure luminescence signal. […]
I'd appreciate it if you marked entries true (1) when IC50 is lower than 2000 nM and false (0) when it is not.

Compound	Class Label
CCS(=O)(=O)c1ccc(CNC(=O)N2CC(c3ccccc3)C(c3cn(C4CC4)nc3C(C)(C)C)C2)nc1 (stereo not shown)	true (1)
CCS(=O)(=O)c1ccc(CNC(=O)N2CC(c3ccccc3)C(c3ccnn3-c3ccccc3)C2)cc1 (stereo not shown)	false (0)
CCS(=O)(=O)c1ccc(CNC(=O)N2CC(c3ccccc3)C(c3ccccc3OC(F)(F)F)C2)nc1 (stereo not shown)	true (1)
CCS(=O)(=O)c1ccc(CNC(=O)N2CC(c3ccccc3)C(c3csc4ccccc34)C2)cc1 (stereo not shown)	true (1)
CCS(=O)(=O)c1ccc(CNC(=O)N2C[C@H](c3ccccc3)[C@@H](c3cc(C4CC4)nn3C(C)C)C2)cc1 [Example 16B]	true (1)
CCS(=O)(=O)c1ccc(CNC(=O)N2CC(c3cccc(Cl)c3)C(c3nc(C4CC4)cs3)C2)cc1 (stereo not shown)	false (0)
CCS(=O)(=O)c1ccc(CNC(=O)N2CC(c3ccccc3)C(c3cc(C4CC4)nn3C(C)C)C2)nc1 (stereo not shown)	false (0)
CCS(=O)(=O)c1ccc(CNC(=O)N2CC(c3cccc(Cl)c3)C(c3cccc4cnccc34)C2)cc1 (stereo not shown)	true (1)
CCS(=O)(=O)c1ccc(CNC(=O)N2CC(c3cccc(Cl)c3)C(c3ccccc3C(F)(F)F)C2)nc1 (stereo not shown)	true (1)
CCS(=O)(=O)c1ccc(CNC(=O)N2CC(c3ccccc3)C(c3cc(C4CC4)nn3C(C)C)C2)cn1 (stereo not shown)	false (0)
CCS(=O)(=O)c1ccc(CNC(=O)N2CC(c3ccccc3)C3(C2)Oc2c(C(C)C)ccc(C)c2C3=O)cc1 (stereo not shown)	true (1)
CCS(=O)(=O)c1ccc(CNC(=O)N2CC(c3ccccc3)C(c3cc(C(F)(F)F)cn(C(C)C)c3=O)C2)cc1 (stereo not shown)	true (1)
CNS(=O)(=O)c1ccc(CNC(=O)N2CC(c3ccccc3)C(c3cc(C4CC4)nn3C(C)C)C2)cc1 (stereo not shown)	false (0)
